Molecular target: HLA-A*0201 (human)
Experiment: inhibition of binding of a radioiodinated peptide to the MHC molecule (50% inhibition; column headed KD)
QUANTITY_KIND: Kd (nM)
All answers are understood in nM, so give the number only.

# lookup: Kd of LLLLTVLTV (modifications not checked) [LLLL(Tn-T)LTV] 1300

Every entry's value here was drawn from patent US20110045046A1.
